Catalogue of compounds with associated Hb concentration
- System: hemoglobin-haptoglobin complex
- protocol details: Stability of hemoglobin (as hemoglobin-haptoglobin complex) in samples preserved at 37° C. in preservation solution containing 1 unit/L haptoglobin, Hb measured by latex agglutination method (Examples 1 to 7)
- Design: species or system human
- measurement conditions: No feces; sugar 50 mmol/L + phenylboronic acid 15 mmol/L; 37° C., 7 days
- Procedure: Preservation solutions were prepared with the addition of 40 mmol/L HEPES (pH 6.8), 0.1% BSA, 0.1% NaN3, 1 unit/L haptoglobin, and 0 to 100 mmol/L phenylboronic acid. Samples obtained by adding hemoglobin-added fecal specimens to the preservation solutions so that the fecal concentration would be 0.5% were preserved at 37° C. for 0, 7, 14, and 21 days. […] The hemoglobin (Hb) concentrations (μg/L) in the preserved samples were measured by the latex agglutination method. […]
Express the reported value numerically, then name its unit.

[
  {
    "compound": "OC[C@@H](O)[C@@H](O)[C@H](O)[C@@H](O)CO [Sorbitol, sorbitol]",
    "recorded metric": "Hb concentration",
    "measurement": "261 µg/L"
  }
]

So for OC[C@H]1O[C@H](O[C@H]2O[C@H](CO)[C@@H](O)[C@H](O)[C@H]2O)[C@H](O)[C@@H](O)[C@@H]1O [Trehalose, trehalose] , the logged Hb concentration turned out to be 253 µg/L

So for O=C(CO)[C@@H](O)[C@H](O)[C@H](O)CO [Fructose, fructose] , the logged Hb concentration turned out to be 255 µg/L

So for OC[C@H]1O[C@@](CO)(O[C@H]2O[C@H](CO)[C@@H](O)[C@H](O)[C@H]2O)[C@@H](O)[C@@H]1O [Sucrose, sucrose] , the logged Hb concentration turned out to be 253 µg/L

So for OC[C@@H](O)[C@@H](O)[C@H](O)[C@H](O)CO [Mannitol, mannitol] , the logged Hb concentration turned out to be 263 µg/L

###

Catalogue of compounds with associated Recovery ratio with respect to Hb after 0 days
- Test system: hemoglobin-haptoglobin complex
- protocol details: Stability of hemoglobin (as hemoglobin-haptoglobin complex) in samples preserved at 37° C. in preservation solution containing 1 unit/L haptoglobin, Hb measured by latex agglutination method (Examples 1 to 7)
- Design: species or system human
- measurement conditions: Feces 3; arylboronic acid 15 mmol/L; 37° C., 14 days
The answer is to be given in %; state only the numeric part.

[
  {
    "compound": "O=C(O)c1ccc(B(O)O)cc1",
    "target system": "hemoglobin-haptoglobin complex",
    "measurement": 65
  }
]

So for `O=C(O)c1cccc(B(O)O)c1` , the logged Recovery ratio with respect to Hb after 0 days turned out to be 67

So for `O=C(O)c1ccccc1B(O)O` , the logged Recovery ratio with respect to Hb after 0 days turned out to be 25

So for OB(O)c1cccc(O)c1 [3H-PBA, 3-hydroxyphenylboronic acid] , the logged Recovery ratio with respect to Hb after 0 days turned out to be 66

###

- target system: hemoglobin (Homo sapiens, UniProt P68871+P69905)
- Sequence (P69905 2-142): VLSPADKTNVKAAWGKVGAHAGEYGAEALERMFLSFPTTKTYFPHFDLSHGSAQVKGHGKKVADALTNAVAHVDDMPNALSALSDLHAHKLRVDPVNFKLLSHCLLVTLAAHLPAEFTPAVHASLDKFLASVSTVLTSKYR
- Sequence (P68871 2-147): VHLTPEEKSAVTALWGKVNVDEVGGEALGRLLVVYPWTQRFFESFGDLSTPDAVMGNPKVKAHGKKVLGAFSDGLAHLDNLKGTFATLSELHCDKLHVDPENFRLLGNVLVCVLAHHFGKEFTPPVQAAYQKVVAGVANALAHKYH
- protocol details: Stability of hemoglobin in samples preserved at 37° C. in preservation solution containing no haptoglobin, Hb measured by latex agglutination method (Examples 8, 9 and Table 10)
- measurement conditions: No feces; 38 h at 37° C.; no phenylboronic acid, sugar 100 mmol/L
- Protocol: Preservation solutions were prepared with the addition of 40 mmol/L HEPES (pH 6.8), 0.1% BSA, 0.1% NaN3, and 0 to 2.5 mmol/L phenylboronic acid. […] The hemoglobin (Hb) concentrations (μg/L) in the preserved samples were measured by the latex agglutination method using the same measurement reagent and measurement device as in Example 1. […]
Catalogue of compounds with associated Hb concentration
The answer is to be given in µg/L; state only the numeric part.

Some entries whose results are on file:
[
  {
    "compound": "OC[C@@H](O)[C@@H](O)[C@H](O)[C@H](O)CO [Mannitol, mannitol]",
    "target system": "hemoglobin (Homo sapiens, UniProt P68871+P69905)",
    "Hb concentration / µg/L": 237
  },
  {
    "compound": "O=C(CO)[C@@H](O)[C@H](O)[C@H](O)CO [Fructose, fructose]",
    "target system": "hemoglobin (Homo sapiens, UniProt P68871+P69905)",
    "Hb concentration / µg/L": 233
  }
]

So for OC[C@H]1O[C@H](O[C@H]2O[C@H](CO)[C@@H](O)[C@H](O)[C@H]2O)[C@H](O)[C@@H](O)[C@@H]1O [Trehalose, trehalose] , the logged Hb concentration turned out to be 228

So for OC[C@@H](O)[C@@H](O)[C@H](O)[C@@H](O)CO [Sorbitol, sorbitol] , the logged Hb concentration turned out to be 245

So for OC[C@H]1O[C@@](CO)(O[C@H]2O[C@H](CO)[C@@H](O)[C@H](O)[C@H]2O)[C@@H](O)[C@@H]1O [Sucrose, sucrose] , the logged Hb concentration turned out to be 229
